Test system: HEP-G2 cells
Test: cells
Conditions: Homo sapiens, HepG2, 3 h, read-out: HEP-G2 EC50, HEP-G2 cells, glucose utilisation, 3 hours incubation
Property measured: EC50 (µM)

A = Cc1c(Br)cc(C(C)C)c(O)c1C(=O)Nc1ccc([N+](=O)[O-])cc1Cl [Example 41]
B = CCOC(=O)/C(C#N)=C(/C)c1cc(C(C)(C)C)c(O)c(C(C)(C)C)c1 [Example 82]
C = N#Cc1cc(NC(=O)c2cccc(C(F)(F)F)c2)ccc1Sc1ccccc1 [Example 24]
Query: I'd appreciate it if you sorted the entries above by their EC50, lowest to highest. Labels, ranked as asked.
Result: A, B, C
